FYI, the data here is from paper PMC11513893.

Target: BRK (PTK6) (Homo sapiens)
Sequence (Q13882 whole entry, species assumed): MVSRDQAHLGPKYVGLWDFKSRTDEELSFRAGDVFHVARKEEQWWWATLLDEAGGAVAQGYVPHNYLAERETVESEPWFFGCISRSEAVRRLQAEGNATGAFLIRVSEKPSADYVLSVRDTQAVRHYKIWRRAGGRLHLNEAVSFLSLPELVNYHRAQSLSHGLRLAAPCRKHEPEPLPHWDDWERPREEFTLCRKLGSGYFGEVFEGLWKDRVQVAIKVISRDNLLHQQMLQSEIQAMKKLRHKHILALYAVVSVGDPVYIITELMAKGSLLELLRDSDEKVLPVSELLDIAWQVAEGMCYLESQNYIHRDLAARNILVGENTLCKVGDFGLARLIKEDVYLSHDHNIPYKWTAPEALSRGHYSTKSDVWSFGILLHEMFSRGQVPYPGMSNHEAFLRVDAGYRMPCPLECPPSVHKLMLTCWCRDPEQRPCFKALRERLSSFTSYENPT
READOUT NAME: IC50

INSERT INTO results (compound, assayed_system, endpoint_value) VALUES
  ('COc1cc(N2CCC(N3CCN(CC4CCN(c5ccc6c(c5)CN(C5CCC(=O)NC5=O)C6=O)CC4)CC3)CC2)ccc1Nc1ncc(Cl)c(Nc2ccccc2P(C)(C)=O)n1 (stereo not shown) [9o]', 'BRK (PTK6) (Homo sapiens)', '76 nM');

---

System: ROS1
Experiment: ROS1 degradation in Ba/F3 cells (WES immunoblotting)
Type: cell-based
Details: concentration needed to reduce ROS1 protein by 50%, Ba/F3 cells
READOUT NAME: DC50 (nM)

INSERT INTO results (molecule, assayed_system, unit_spec, endpoint_value) VALUES
  ('Cc1cc(Nc2ncc(Cl)c(Nc3ccccc3S(=O)(=O)C(C)C)n2)c(OC(C)C)cc1C1CCN(C2CCN(CCNc3ccc4c(c3)C(=O)N(C3CCC(=O)NC3=O)C4=O)CC2)CC1 (stereo not drawn) [8k]', 'ROS1', 'nM', 204),
  ('COc1cc(N2CCC(N3CCN(CC4CCN(c5ccc6c(c5)C(=O)N(C5CCC(=O)NC5=O)C6=O)CC4)CC3)CC2)ccc1Nc1ncc(Cl)c(Nc2ccccc2P(C)(C)=O)n1 (stereo not drawn) [9f]', 'ROS1', 'nM', 13),
  ('Cc1cc(Nc2ncc(Cl)c(Nc3ccccc3S(=O)(=O)C(C)C)n2)c(OC(C)C)cc1C1CCN(C2CN(C3CN(c4ccc5c(c4)C(=O)N(C4CCC(=O)NC4=O)C5=O)C3)C2)CC1 (stereo not drawn) [8o]', 'ROS1', 'nM', 122);

---

Tested on: Ba/F3 ROS1 L2086F, S1986F/L2086F, S1986F/G2032R/L2086F
Assay: Antiproliferation assay, resistant mutations involving L2086F
Format: cell-based
Conditions: Mus musculus, BaF3; Ba/F3 cells, summary of Table 6; read-out: potency against resistant mutations involving L2086F, S1986F/L2086F, S1986F/G2032R/L2086F
Experimental: To assess the 72 h effect of drug treatment on cell proliferation, 2000 to 3000 cells were plated in replicates of three in 96-well plates. The plates were placed in an incubator at 37 °C, 5% CO2 for 72 h. […] Luminescence was measured on a multiplate reader and analyzed. […] IC50 values were determined using a nonlinear regression model with a sigmoidal dose response in GraphPad. […]
READOUT NAME: IC50

INSERT INTO measurements (compound, endpoint_value) VALUES
  ('COc1cc(N2CCC(N3CCN(CC4CCN(c5ccc6c(c5)CN(C5CCC(=O)NC5=O)C6=O)CC4)CC3)CC2)ccc1Nc1ncc(Cl)c(Nc2ccccc2P(C)(C)=O)n1 (stereo not shown) [9o]', '1.9 to 66 nM');

---

Assay: Metabolic stability in rat microsomes
Assay type: in vitro ADME
Details: rat, pooled rat microsomes, pH 7.4; 250 nM compound, NADPH, 37 °C
Method: Pooled human and rat microsomes were prepared and stored at −80 °C prior to use. […] The natural log of the remaining percentage of the test compound was plotted against time and the gradient of the line was determined.
Output true (1) for microsomal CLint at 1 h, 0.25 µM not less than 10 µL/min/mg; output false (0) otherwise.

INSERT INTO assay_data (molecule, group) VALUES
  ('COc1cc(N2CCC(N3CCN(CC4CN(c5ccc6c(c5)C(=O)N(C5CCC(=O)NC5=O)C6=O)C4)CC3)CC2)ccc1Nc1ncc(Cl)c(Nc2ccccc2P(C)(C)=O)n1 (centres unmarked)', 'true (1)'),
  ('COc1cc(N2CCC(N3CCN(CC4CCN(c5ccc6c(c5)CN(C5CCC(=O)NC5=O)C6=O)CC4)CC3)CC2)ccc1Nc1ncc(Cl)c(Nc2ccccc2P(C)(C)=O)n1 (centres unmarked)', 'true (1)'),
  ('COc1cc(N2CCN(CC3CCN(c4ccc5c(c4)C(=O)N(C4CCC(=O)NC4=O)C5=O)CC3)CC2)ccc1Nc1ncc(Cl)c(Nc2ccccc2P(C)(C)=O)n1 (centres unmarked)', 'true (1)'),
  ('COc1cc(N2CCN(CC3CN(c4ccc5c(c4)CN(C4CCC(=O)NC4=O)C5=O)C3)CC2)ccc1Nc1ncc(Cl)c(Nc2ccccc2P(C)(C)=O)n1 (centres unmarked)', 'false (0)'),
  ('COc1cc(N2CCC(N3CCN(CC4CCN(c5ccc6c(c5)C(=O)N(C5CCC(=O)NC5=O)C6=O)CC4)CC3)CC2)ccc1Nc1ncc(Cl)c(Nc2ccccc2P(C)(C)=O)n1 (centres unmarked)', 'false (0)');
